# Test system: 3T3-L1 pre-adipocyte cells
# PROCEDURE_SUMMARY: Inhibition of lipid accumulation in differentiated adipocytes (Oil Red O)
# Assay type: cell-based, mouse
# CONDITION_SUMMARY: Homo sapiens; 2.0 μg/mL; 3T3-L1 adipocytes
Kindly state inhibition at 2 µg/mL for each of the entries shown.
Expressed in %, but write only the number.

Input: Read off the recorded inhibition at 2 µg/mL for CC1=C2[C@@H]3OC(=O)C(CN4CCCCC4)[C@]3(O)CC[C@@]2(C)CCC1 (stereo partly shown)
Output: 23.3

Input: Read off the recorded inhibition at 2 µg/mL for C=C1C(=O)O[C@H]2C3=C(C)C(O)CC[C@]3(C)CC[C@@]12O (stereo partly shown)
Output: 45

Input: Read off the recorded inhibition at 2 µg/mL for "C=C1C(=O)O[C@H]2C3=C(C)C(=O)CC[C@]3(C)CC[C@@]12O"
Output: 8

Input: Read off the recorded inhibition at 2 µg/mL for CC1=C2[C@@H]3OC(=O)C(CN4CCOCC4)[C@]3(O)CC[C@@]2(C)CCC1 (stereo partly shown)
Output: 36.2

----------
# Test system: 3T3-L1 pre-adipocyte cells
# PROCEDURE_SUMMARY: Inhibition of lipid accumulation in differentiated adipocytes (Oil Red O)
# Assay type: cell-based, mouse
# CONDITION_SUMMARY: Homo sapiens; 2.0 μg/mL; 3T3-L1 adipocytes
Kindly state inhibition at 2 µg/mL for each of the entries shown.
Expressed in %, but write only the number.

Input: Read off the recorded inhibition at 2 µg/mL for "CC1=CCC[C@]2(C)CCC3=C(CBr)C(=O)OC3=C12"
Output: 14

Input: Read off the recorded inhibition at 2 µg/mL for "CC1=CCC[C@]2(C)CCC3=C(C=O)C(=O)OC3=C12"
Output: 55

Input: Read off the recorded inhibition at 2 µg/mL for CC1(O)CCC[C@]2(C)CCC3=C(CN4CCCCC4)C(=O)OC3=C12 (stereo partly drawn)
Output: 7
